// provenance: patent US20230381328A1

# study-target: monoclonal antibody mAB 198
# assay-details: peptide microarray, fluorescence, linear peptide
readout-name: relative signal [%] (%)

CNLKYNP [CNLKYNP, linear mimotope]; 6.7
WRLRWNPAD; 9
VRHRWNPAD; 8.1
IDVRLRYNP; 12.2
NPADYGD [NPADYGD, linear mimotope]; 14.1
VPLRWNPAD; 7.6
SLRFNPADY; 6.5
GSLRFNPAD; 9.3
WNPDDYGHV; 8.8
SLRVNPADY; 6.7

P = RWNPADF [RWNPADF, linear mimotope]
Q = ALRWNPADY
R = NPDDYHG [NPDDYHG, linear mimotope]
Query: Give the ascending ranking of the items by reported relative signal [%]. Order the labels as requested and give them as your answer.
Result: Q, P, R
